- Test system: rodent lifetime carcinogenesis bioassay, tumor incidence TD50
- protocol_details: carcinogenic potency in animals, long-term in vivo studies, CPDB compilation (AID 1745844)
- conditions_used: rat; strain Sprague-Dawley; males; inhaled; site: any site (literature study); lesion: several types; types named in the paper; dosed 105 weeks; study length 105 weeks

| structure_string | TD50 (mg/kg/day) |
| --- | --- |
| CC(F)(Cl)Cl | 5790 |

---

- System: rodent lifetime carcinogenesis bioassay, tumor incidence TD50
- protocol_details: carcinogenic potency in animals, long-term in vivo studies, CPDB compilation (AID 1745844)
- conditions_used: mouse; strain B6C3F1; males; inhaled; site: all sites; lesion: histiocytic sarcoma; dosed 40 weeks; study length 104 weeks

| structure_string | measurement_target | TD50 |
| --- | --- | --- |
| C=CC=C | rodent lifetime carcinogenesis bioassay, tumor incidence TD50 | 128 mg/kg/day |

---

- System: rodent lifetime carcinogenesis bioassay, tumor incidence TD50
- protocol_details: carcinogenic potency in animals, long-term in vivo studies, CPDB compilation (AID 1745844)
- conditions_used: rat; strain Fischer 344; males; by gavage; site: pancreas; lesion: acinar-cell carcinoma + acinar-cell adenoma; dosed 103 weeks; study length 104 weeks

| structure_string | measurement_target | value_units | TD50 |
| --- | --- | --- | --- |
| Nc1ccc([N+](=O)[O-])cc1O | rodent lifetime carcinogenesis bioassay, tumor incidence TD50 | mg/kg/day | 107 |

---

- Tested on: rodent lifetime carcinogenesis bioassay, tumor incidence TD50
- protocol_details: carcinogenic potency in animals, long-term in vivo studies, CPDB compilation (AID 1745844)
- conditions_used: rat; strain Fischer 344; males; in drinking water; site: liver; lesion: one or several types; types not named; dosed 30 weeks; study length 104 weeks

| structure_string | TD50 |
| --- | --- |
| CC(=O)CN(N=O)C(=O)NCCCl | 3.14 mg/kg/day |
| O=NN(CCO)C(=O)NCCCl | 0.59 mg/kg/day |
| CCNC(=O)N(CCO)N=O | 1.09 mg/kg/day |

---

- System: rodent lifetime carcinogenesis bioassay, tumor incidence TD50
- protocol_details: carcinogenic potency in animals, long-term in vivo studies, CPDB compilation (AID 1745844)
- conditions_used: rat; strain Fischer 344; males; in feed; site: lung; lesion: alveolar/bronchiolar adenoma; dosed 12 weeks; study length 103 weeks
quantity: TD50 (mg/kg/day)

| structure_string | quantity | experimental_result |
| --- | --- | --- |
| OCC(CO)(CBr)CBr | TD50 | 73.1 |

---

- Tested on: rodent lifetime carcinogenesis bioassay, tumor incidence TD50
- protocol_details: carcinogenic potency in animals, long-term in vivo studies, CPDB compilation (AID 1745844)
- conditions_used: mouse; strain NZO/BlGd; females; in drinking water; site: liver; lesion: hepatocellular carcinoma; dosed 32 weeks; study length 74 weeks
quantity: TD50

| structure_string | experimental_result |
| --- | --- |
| O=NN1CCCCCC1 | 3.21 mg/kg/day |

---

- System: rodent lifetime carcinogenesis bioassay, tumor incidence TD50
- protocol_details: carcinogenic potency in animals, long-term in vivo studies, CPDB compilation (AID 1745844)
- conditions_used: hamster; strain Syrian Golden; males; inhaled; site: any site (literature study); lesion: several types; types named in the paper; dosed 78 weeks; study length 78 weeks
The source made the active and inactive calls. The rule behind the calls is not given here.

| structure_string | measurement_target | TD50 |
| --- | --- | --- |
| C=CC(=C)Cl | rodent lifetime carcinogenesis bioassay, tumor incidence TD50 | 110 mg/kg/day (inactive) |

---

- System: rodent lifetime carcinogenesis bioassay, tumor incidence TD50
- protocol_details: carcinogenic potency in animals, long-term in vivo studies, CPDB compilation (AID 1745844)
- conditions_used: rat; strain F344/DuCrj; males; in drinking water; site: esophagus; lesion: papilloma; dosed 50 weeks; study length 50 weeks

| structure_string | value_units | TD50 |
| --- | --- | --- |
| CCCCN(N=O)C(N)=O | mg/kg/day | 4.08 |

---

- Test system: rodent lifetime carcinogenesis bioassay, tumor incidence TD50
- protocol_details: carcinogenic potency in animals, long-term in vivo studies, CPDB compilation (AID 1745844)
- conditions_used: rat; strain Fischer 344; males; in drinking water; site: liver; lesion: neoplastic nodule; dosed 104 weeks; study length 104 weeks
quantity: TD50

| structure_string | measurement_target | quantity | experimental_result |
| --- | --- | --- | --- |
| Cc1ccc(S(=O)(=O)Oc2ccc(N=Nc3ccc(-c4ccc(N=Nc5c(O)ccc6cc(S(=O)(=O)O)cc(S(=O)(=O)O)c56)c(C)c4)cc3C)cc2)cc1 | rodent lifetime carcinogenesis bioassay, tumor incidence TD50 | TD50 | 10.4 mg/kg/day |

---

- Test system: rodent lifetime carcinogenesis bioassay, tumor incidence TD50
- protocol_details: carcinogenic potency in animals, long-term in vivo studies, CPDB compilation (AID 1745844)
- conditions_used: mouse; strain B6C3F1; females; inhaled; site: liver; lesion: hepatocellular adenoma + hepatoblastoma + hepatocellular carcinoma; dosed 104 weeks; study length 104 weeks
Catalogue of TD50 values
quantity: TD50 (mg/kg/day)

| compound | measurement_target | quantity | value_units | experimental_result |
| --- | --- | --- | --- | --- |
| CC(O)COC(C)(C)C (configuration not stated) | rodent lifetime carcinogenesis bioassay, tumor incidence TD50 | TD50 | mg/kg/day | 1780 |
| C=CC(=C)Cl | rodent lifetime carcinogenesis bioassay, tumor incidence TD50 | TD50 | mg/kg/day | 7.07 |

---

- Test system: rodent lifetime carcinogenesis bioassay, tumor incidence TD50
- protocol_details: carcinogenic potency in animals, long-term in vivo studies, CPDB compilation (AID 1745844)
- conditions_used: mouse; strain Charles River CD1; males; in feed; site: liver; lesion: hepatocellular adenoma; dosed 78 weeks; study length 78 weeks
Active and inactive are the calls of the source. No rule for the calls is given here.

| structure_string | TD50 |
| --- | --- |
| CCN(CC)C(=O)c1cccc(C)c1 | 2580 mg/kg/day (inactive) |

---

- System: rodent lifetime carcinogenesis bioassay, tumor incidence TD50
- protocol_details: carcinogenic potency in animals, long-term in vivo studies, CPDB compilation (AID 1745844)
- conditions_used: rat; strain Sprague-Dawley Spartan; males; inhaled; site: nasal passageway; lesion: carcinoma; dosed 26 weeks; study length 121 weeks
quantity: TD50

| structure_string | measurement_target | experimental_result |
| --- | --- | --- |
| ClCOCCl | rodent lifetime carcinogenesis bioassay, tumor incidence TD50 | 0.795 mg/kg/day |

---

Catalogue of TD50 values
- Tested on: rodent lifetime carcinogenesis bioassay, tumor incidence TD50
- protocol_details: carcinogenic potency in animals, long-term in vivo studies, CPDB compilation (AID 1745844)
- conditions_used: mouse; strain B6C3F1; males; by gavage; site: liver; lesion: hepatocellular adenoma + hepatoblastoma + hepatocellular carcinoma; dosed 104 weeks; study length 104 weeks

| compound | value_units | TD50 |
| --- | --- | --- |
| COC1COC(OC2COC(OC3COC(OC4COC(OC)C(OS(=O)(=O)O)C4OS(=O)(=O)O)C(OC4OC(C(=O)O)C(OC)C(OS(=O)(=O)O)C4OS(=O)(=O)O)C3OS(=O)(=O)O)C(OS(=O)(=O)O)C2OS(=O)(=O)O)C(OS(=O)(=O)O)C1OS(=O)(=O)O (configuration not stated) | mg/kg/day | 538 |
| C/C=C/C=C/C=O | mg/kg/day | 211 |

---

- System: rodent lifetime carcinogenesis bioassay, tumor incidence TD50
- protocol_details: carcinogenic potency in animals, long-term in vivo studies, CPDB compilation (AID 1745844)
- conditions_used: mouse; strain B6C3F1; females; by gavage; site: Harderian gland; lesion: adenoma + adenoma, bilateral; dosed 103 weeks; study length 105 weeks
quantity: TD50

| structure_string | quantity | experimental_result |
| --- | --- | --- |
| C=CC(=O)NCO | TD50 | 55.5 mg/kg/day |

---

- System: rodent lifetime carcinogenesis bioassay, tumor incidence TD50
- protocol_details: carcinogenic potency in animals, long-term in vivo studies, CPDB compilation (AID 1745844)
- conditions_used: mouse; strain Charles River CD1; males; in feed; site: liver; lesion: hepatocellular adenoma; dosed 104 weeks; study length 104 weeks
The source made the active and inactive calls. How the calls were made is not given here.

| molecule | TD50 |
| --- | --- |
| OC(Cn1cncn1)(Cn1cncn1)c1ccc(F)cc1F | 144 mg/kg/day (inactive) |
| CN[C@H]1CC[C@@H](c2ccc(Cl)c(Cl)c2)c2ccccc21 | 147 mg/kg/day |
| O=C(O)c1cc(Oc2ccc(C(F)(F)F)cc2Cl)ccc1[N+](=O)[O-] | 187 mg/kg/day |
| O=C(O)CCCC/C=C(\c1ccccc1)c1cccnc1 | 2050 mg/kg/day (inactive) |
| O=C(O)C1=NN(c2ccc(S(=O)(=O)O)cc2)C(=O)C1N=Nc1ccc(S(=O)(=O)O)cc1 (stereo not given) | 2150 mg/kg/day (inactive) |
